STUDY_SYSTEM: SARS-CoV-2 Spike (Severe acute respiratory syndrome coronavirus 2, UniProt P0DTC2)
MEASURED_ENDPOINT: Kd

## Input Any idea what its Kd is? The compound is COc1ccc2cc1Oc1ccc(cc1)C[C@H]1c3cc(c(OC)cc3CCN1C)Oc1c(OC)c(OC)cc3c1[C@H](C2)N(C)CC3 [tetrandrine]
## Output ~2.23 µM

Source of measurements: paper PMC12399569
